Attribution: paper PMC3508667

Molecular target: hen egg white lysozyme (Gallus gallus (hen egg white), UniProt P00698)
Sequence (P00698 19-147): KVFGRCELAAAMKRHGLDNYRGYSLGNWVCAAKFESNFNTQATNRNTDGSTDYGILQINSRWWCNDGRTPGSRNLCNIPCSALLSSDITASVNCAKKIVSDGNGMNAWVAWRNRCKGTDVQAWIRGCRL
Test: SPR
quantity.name: log10 of Kd (log10 of the value in nM)

INSERT INTO results (binder, quantity_name, value_measured) VALUES
  ('(Phe34)-scFv (scFv, V domains shown) VH: DIQLQESGPSLVKPSQTLSLTCSVTGDSITSDYFSWIRKFPGNRLEYMGYVSYSGSTYYNPSLKSRISITRDTSKNQYYLDLNSVTTEDTATYYCANWDGDYWGQGTLVTVSA VL: DIVLTQSPATLSVTPGNSVSLSCRASQSIGNNLHWYQQKSHESPRLLIKYASQSISGIPSRFSGSGSGTDFTLSINSVETEDFGMYFCQQSNSWPYTFGGGTKLEIT', 'log10 of Kd', -0.58),
  ('^5FW(Phe34)-scFv (scFv, V domains shown) VH: DIQLQESGPSLVKPSQTLSLTCSVTGDSITSDYFSWIRKFPGNRLEYMGYVSYSGSTYYNPSLKSRISITRDTSKNQYYLDLNSVTTEDTATYYCANWDGDYWGQGTLVTVSA VL: DIVLTQSPATLSVTPGNSVSLSCRASQSIGNNLHWYQQKSHESPRLLIKYASQSISGIPSRFSGSGSGTDFTLSINSVETEDFGMYFCQQSNSWPYTFGGGTKLEIT', 'log10 of Kd', 0.09),
  ('^5FW(Phe94)-scFv (scFv, V domains shown) VH: DIQLQESGPSLVKPSQTLSLTCSVTGDSITSDYWSWIRKFPGNRLEYMGYVSYSGSTYYNPSLKSRISITRDTSKNQYYLDLNSVTTEDTATYYCANWDGDYWGQGTLVTVSA VL: DIVLTQSPATLSVTPGNSVSLSCRASQSIGNNLHWYQQKSHESPRLLIKYASQSISGIPSRFSGSGSGTDFTLSINSVETEDFGMYFCQQSNSFPYTFGGGTKLEIT', 'log10 of Kd', 0.30),
  ('^5FW(Phe36)-scFv (scFv, V domains shown) VH: DIQLQESGPSLVKPSQTLSLTCSVTGDSITSDYWSFIRKFPGNRLEYMGYVSYSGSTYYNPSLKSRISITRDTSKNQYYLDLNSVTTEDTATYYCANWDGDYWGQGTLVTVSA VL: DIVLTQSPATLSVTPGNSVSLSCRASQSIGNNLHWYQQKSHESPRLLIKYASQSISGIPSRFSGSGSGTDFTLSINSVETEDFGMYFCQQSNSWPYTFGGGTKLEIT', 'log10 of Kd', 0.63),
  ('(Phe36)-scFv (scFv, V domains shown) VH: DIQLQESGPSLVKPSQTLSLTCSVTGDSITSDYWSFIRKFPGNRLEYMGYVSYSGSTYYNPSLKSRISITRDTSKNQYYLDLNSVTTEDTATYYCANWDGDYWGQGTLVTVSA VL: DIVLTQSPATLSVTPGNSVSLSCRASQSIGNNLHWYQQKSHESPRLLIKYASQSISGIPSRFSGSGSGTDFTLSINSVETEDFGMYFCQQSNSWPYTFGGGTKLEIT', 'log10 of Kd', -0.25),
  ('(Phe94)-scFv (scFv, V domains shown) VH: DIQLQESGPSLVKPSQTLSLTCSVTGDSITSDYWSWIRKFPGNRLEYMGYVSYSGSTYYNPSLKSRISITRDTSKNQYYLDLNSVTTEDTATYYCANWDGDYWGQGTLVTVSA VL: DIVLTQSPATLSVTPGNSVSLSCRASQSIGNNLHWYQQKSHESPRLLIKYASQSISGIPSRFSGSGSGTDFTLSINSVETEDFGMYFCQQSNSFPYTFGGGTKLEIT', 'log10 of Kd', -0.57);
